Recorded metric: melting point

Past entries and their recorded results:
O=c1[nH]c2ccc([N+](=O)[O-])cc2c(=O)o1 :: 259 to 263 °C
CC(COc1ccc(C(C)(C)C)cc1)OS(=O)OCCCl (centres undefined) :: -31.7 °C
CC(=O)Nc1ccc(Br)cc1OC(F)(F)F :: 136 °C
CC12CC(O)C3C(CCC4CC(O)CCC43C)C1CCC2=O (centres undefined) :: 235 °C
CC1COc2c(C3(N)CC3)c(F)cc3c(=O)c(C(=O)O)cn1c23 (centres undefined) :: 269 °C

Give measured melting point for every item shown.
1. CS(=O)(=O)c1ccc(C#N)cc1
2. Brc1cc2ccc1CCc1ccc(c(Br)c1)CC2

[out]
1: 137 to 142 °C; 2: 251 °C

Here are 4 compounds. What values of melting point were reported for them?
1. COC1(OC)C2C=CC(C)(O2)C1C(=O)O (centres undefined)
2. FC(F)=C(F)F
3. CCCc1cccc(O)c1
4. CC(C)(C)P(c1ccc2ccccc2c1-c1cccc2ccccc12)C(C)(C)C

[out]
1: 176 to 178 °C; 2: -142 °C; 3: 26 °C; 4: 147 to 149 °C

List the reported melting point of each compound below.
1. C#CCN1C(=O)COc2cc(F)c(N3C(=O)C4=C(CCCC4)C3=O)cc21
2. O=[N+]([O-])C=Cc1ccccc1C(F)(F)F
3. CCOC(=O)C(=O)Nc1cc(C(F)(F)F)cc(C(F)(F)F)c1

[out]
1: 203 °C; 2: 60 to 62 °C; 3: 90 to 92 °C

Dear colleague, could you send me melting point for each of the items below? Thanks.
1. COc1ccc(C=Cc2cc(O)cc(OC3OC(CO)C(O)C(O)C3O)c2)cc1O (centres undefined)
2. CCCCCCCCCCC(O)CC (centres undefined)
3. N#CC(=Cc1cccc(O)c1)C(=O)O
4. Cc1ccc(S(=O)(=O)N(CCO)CCO)cc1
5. O=C(O)c1nn(Cc2ccc(Cl)cc2Cl)c2ccccc12
6. CC1(C)OC2CC3C4CCC5=CC(=O)C=CC5(C)C4C(O)CC3(C)C2(C(=O)CO)O1 (centres undefined)
7. CC1CCc2cc(F)cc3c(=O)c(C(=O)O)cn1c23 (centres undefined)
8. O=C(NCOC(=O)c1ccc(O)cc1)c1ccccc1

[out]
["236 °C", "32 °C", "230 to 233 °C", "94 to 100 °C", "207 °C", "274 °C", "253 °C", "165 to 166 °C"]

Record melting point per entry; entries follow.
1. CSCS(=O)(=O)c1ccc(C)cc1
2. O=C(O)/C=C/c1cccc(F)c1
3. CCCCCCCCCCC(C)CC (centres undefined)
4. N#CCS(=O)(=O)Cc1ccc(Cl)cc1
5. Cc1ccc(C(=O)/C=C/c2ccc(Br)o2)o1
6. Cc1cc2nc(N)sc2cc1C
7. Nc1n[nH]c2ccc(C(F)(F)F)cc12

[out]
1. 79 °C
2. 167 °C
3. -38 °C
4. 179 to 182 °C
5. 69 °C
6. 185 to 189 °C
7. 135 °C

Take each entry in turn and give its melting point.
1. O=c1nc2ccccc2nc(C(F)(F)F)c1NNc1cccnc1
2. COc1cccc(C)c1

[out]
["157 °C", "-47 °C"]

Give melting point for all compounds that follow.
1. O=c1[nH]c(=O)n(C2CCC(CO)O2)cc1Br (centres undefined)
2. CCCCCCCCCCCCCCCC(=O)Oc1ccc([N+](=O)[O-])cc1
3. O=C(O)CCCCc1cccs1

[out]
1. 180 °C
2. 66 °C
3. 41 °C

// for each compound in input: emit melting point
1. O=[N+]([O-])c1ccccc1C(O)C(O)c1ccccc1 (centres undefined)
2. Oc1ccc(Br)cc1C=NCCN=Cc1cc(Br)ccc1O
3. CC(C)CCCC(C)C1CCC2C3CC(=O)C4CC(O)CCC4(C)C3CCC12C (centres undefined)
4. CC(C)C1CCC(Cc2ccc(Cl)cc2)C1(O)Cn1cncn1 (centres undefined)

[out]
1: 100 °C; 2: 191 to 196 °C; 3: 140 to 142 °C; 4: 89 °C

----------
I'd appreciate it if you could supply melting point values for the items below.
One number for each entry, in °C.

C=C[Si](OCCOC)(OCCOC)OCCOC :: -30
COc1cc(NCc2ccc3nc(N)nc(N)c3c2C)cc(OC)c1OC :: 216
NN(c1ccccc1)c1ccccc1 :: 50.5
CC12CCC3C(CCC4CC(O)CCC43C)C1CCC2O (stereo unspecified) :: 167
CC12CCC3C4CCC(=O)C=C4CCC3C1CCC2O (stereo unspecified) :: 122
CCc1occc(=O)c1O :: 162

Moving on to the next compound.
[in] melting point for CCCn1cnc2c1c(=O)n(CCCCC(C)=O)c(=O)n2C ?
[out] 69

----------
Kindly state melting point for each of the entries shown.
One number for each entry, in °C.

Observe how each entry below is paired with its result.
O=C(O)C[C@H](NC(=O)OCC1c2ccccc2-c2ccccc21)c1cccc([N+](=O)[O-])c1 :: 140
O=C(O)C(=S)CC1CCCC(CC(=S)C(=O)O)C1 (centres undefined) :: 85
O=[N+]([O-])c1cc(C(F)(F)F)c(Cl)cc1Cl :: 55
CCOC(=O)c1ccc(CBr)cc1 :: 30.5
CCOC(=O)c1c(N)sc2c1CCCC2 :: 116
COC1OC(COC(=O)C(C)(C)C)C(O)C(OC(=O)C(C)(C)C)C1O (centres undefined) :: 89.8
CC(=O)N1CC(c2ccccc2)C=C1c1ccccc1 (centres undefined) :: 105
O=c1cccc2n1CC1CNCC2C1 (centres undefined) :: 152

Please go through the list and note melting point for each compound.
1. O=C(Nn1cnnc1)C(F)(F)C(F)(F)C(F)(F)C(F)(F)C(F)(F)C(F)(F)C(F)(F)C(F)(F)F
2. Cc1ccc(-c2cnco2)cc1
3. COc1cccc(C(CCC(=O)O)C(C)(C)C(=O)O)c1 (centres undefined)
4. O=C(c1ccccc1)c1ccsc1C(=O)O
5. COC(=O)c1cc2ccccc2cc1C(=O)OC
6. CC(C=CC=C(C)C=CC1=C(C)CCCC1(C)C)=CC=O
7. CC(=O)C(=O)c1cc(C(=O)C(C)=O)c([N+](=O)[O-])cc1[N+](=O)[O-]

[out]
[151, 78, 137, 152, 49, 63, 119]

Look at each compound and report its melting point.
1. Cc1ccc(-c2csc(/C(C#N)=N\Nc3cc(Cl)ccc3Cl)n2)cc1
2. O=C1CCCN1C1CCCCC1
3. COC(=O)C1=C(C(=O)OC)Cc2cc3c(cc2C1)CC3
4. O=C(O)CCC(F)(F)F
5. Oc1cccc(O)c1Cc1c(O)cccc1O
6. C=C1CC(=CC)C(=O)OC2CCN3CC=C(COC(=O)C1(C)O)C23 (centres undefined)
7. CC(C)CCBr
8. CC(C)(C)c1ccc(C(=O)c2ccccc2)cc1

[out]
1. 187
2. 13
3. 133
4. 31
5. 255
6. 218
7. -112
8. 40

----------
# melting point >= 100 °C gives Fulfilled, anything below gives Not fulfilled

Check out these entries, answers already filled in.
Cc1c(C)c2c3ccccc3ccc2c2ccccc12 :: Fulfilled
CC(=O)NC1C(Oc2ccc([N+](=O)[O-])cc2)OC(CO)C(O)C1O (centres undefined) :: Fulfilled
CC1=Cc2ccccc2C1O (centres undefined) :: Not fulfilled
Brc1ccc2ccc3cccc4ccc1c2c34 :: Not fulfilled
COc1ccc(C(=O)OC(COc2ccc(C=CC(=O)c3ccccc3)cc2)COc2ccc(C(=O)C=Cc3ccccc3)cc2)cc1 (centres undefined) :: Not fulfilled

[in] Evaluate OCC(Br)C(Br)CO (centres undefined) : melting point at minimum 100 °C?
[out] Not fulfilled

[in] Entry to check: COC(=O)C(F)(F)C(F)(F)C(F)(F)F
[out] Not fulfilled

[in] And S=C(NCCc1ccccc1)Nc1ccccc1 ?
[out] Fulfilled

----------
Recorded metric: melting point

CCC(CC)(CO)CO :: 61.5 °C
Cc1nc(/C(C#N)=C\c2ccccc2Cl)sc1/N=N/c1ccc(Cl)cc1 :: 198 to 200 °C
O=C1C(=O)c2ccccc2C(Cl)=C1Cl :: 184 °C
COC(=O)c1cnc(Cl)nc1 :: 76 to 80 °C
CSc1ccc(Oc2ccc(C(F)(F)F)cc2[N+](=O)[O-])cc1 :: 41 to 43 °C
COC(=O)c1cc(OCc2cc(COc3cc(C(=O)OC)cc(C(=O)OC)c3)cc(COc3cc(C(=O)OC)cc(C(=O)OC)c3)c2)cc(C(=O)OC)c1 :: 188 °C

Hello, I would appreciate it if you could give melting point for each entry below.
1. O=C(O)CSCCSCC(=O)O
2. FC(F)(F)c1ccnc(S)n1
3. BrC=Cc1ccccc1
4. O=C1OC2(CCCCC2)OC1c1ccccc1 (configuration not stated)
5. NNC(=O)COc1ccc(OC(F)(F)F)cc1

[out]
110 °C
161 to 166 °C
7 °C
87 °C
130 to 133 °C

[in] Quick one: melting point for CCCCCCCCOc1ccccc1 ?
[out] 8 °C

Cited source: a melting point compilation (Tetko et al.)
